Data provenance is patent US11839607B2.

Experiment: Pharmacokinetic experiment of memantine paroxetine cocrystal salt in rats (plasma memantine by LC-MS/MS)
Type: in vivo, SD rat
Conditions: Sprague-Dawley (SD), rat, po, male SD rats, gavage, same molar dose: group A 5.6 mg/kg memantine hydrochloride, group B 17.4 mg/kg cocrystal salt, average value, read-out: Tmax
Readout Type: Tmax (min)
Quick reminder: number only, in min, skip the unit.

Entry CC12CC3CC(C)(C1)CC(N)(C3)C2.Cl [memantine hydrochloride, reference compound] ; Tmax = 37

====

Assay: Pharmacokinetic experiment of memantine paroxetine cocrystal salt in rats (plasma memantine by LC-MS/MS)
Type: in vivo, SD rat
Details: Sprague-Dawley (SD), rat, po, male SD rats, gavage, same molar dose: group A 5.6 mg/kg memantine hydrochloride, group B 17.4 mg/kg cocrystal salt, average value, read-out: AUC(0-t)
Readout Type: AUC(0-t) (ng·h/mL)
Quick reminder: number only, in ng·h/mL, skip the unit.

Entry CC12CC3CC(C)(C1)CC(N)(C3)C2.Cl [memantine hydrochloride, reference compound] ; AUC(0-t) = 0.714

====

Experiment: Pharmacokinetic experiment of memantine paroxetine cocrystal salt in rats (plasma memantine by LC-MS/MS)
Assay type: in vivo, SD rat
Conditions: Sprague-Dawley (SD), rat, po, male SD rats, gavage, same molar dose: group A 5.6 mg/kg memantine hydrochloride, group B 17.4 mg/kg cocrystal salt, average value
Readout Type: AUC(0-inf) (ng·h/mL)
Quick reminder: number only, in ng·h/mL, skip the unit.

Entry CC12CC3CC(C)(C1)CC(N)(C3)C2.Cl [memantine hydrochloride, reference compound] ; AUC(0-inf) = 0.773

====

Assay: Pharmacokinetic experiment of memantine paroxetine cocrystal salt in rats (plasma memantine by LC-MS/MS)
Assay type: in vivo, SD rat
Conditions: Sprague-Dawley (SD), rat, po, male SD rats, gavage, same molar dose: group A 5.6 mg/kg memantine hydrochloride, group B 17.4 mg/kg cocrystal salt, average value, read-out: MRT(0-t)
From the text: Determination of the pharmacokinetic parameters of […] and paroxetine in rat plasma by LC-MS/MS method The memantine paroxetine cocrystal salt prepared in embodiment 1; memantine hydrochloride; dexamethasone (Intermediate inspection office); ammonium formate; methanol is all chromatographic pure (Merck Company); formic acid is all chromatographic pure (Aladdin Company); acetonitrile is all chromatographic pure (Merck Company); experimental water is deionized purified water. […]
Readout Type: MRT last (h)
Quick reminder: number only, in h, skip the unit.

Entry CC12CC3CC(C)(C1)CC(N)(C3)C2.Cl [memantine hydrochloride, reference compound] ; MRT last = 2.43
